Trimeric HA Binding RLU: recorded values
- Target entity: recombinant homotrimeric HA, A/Indonesia/5/05 H5N1 (Influenza A virus A/Indonesia/5/05 (H5N1))
- Method notes: trimeric HA microarray, transfection set 5
- Reported conditions: remark: other sources report otherwise
Express it in RLU; write the number only.

[
  {
    "Binder": "TCN-523 (5248_A17) (antibody, V domains shown) VH: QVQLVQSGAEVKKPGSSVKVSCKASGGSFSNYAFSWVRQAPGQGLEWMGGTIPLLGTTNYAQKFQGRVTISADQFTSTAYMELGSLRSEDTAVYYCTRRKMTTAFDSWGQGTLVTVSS VL: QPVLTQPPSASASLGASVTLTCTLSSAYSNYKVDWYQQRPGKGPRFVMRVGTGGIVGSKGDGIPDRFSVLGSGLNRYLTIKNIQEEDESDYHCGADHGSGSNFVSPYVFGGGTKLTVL",
    "Numeric result": 55000
  },
  {
    "Binder": "TCN-555 (5246_L16) (antibody, V domains shown) VH: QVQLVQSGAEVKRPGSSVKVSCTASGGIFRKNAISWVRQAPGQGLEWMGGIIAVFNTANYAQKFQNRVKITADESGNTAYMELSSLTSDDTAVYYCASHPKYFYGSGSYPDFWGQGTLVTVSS VL: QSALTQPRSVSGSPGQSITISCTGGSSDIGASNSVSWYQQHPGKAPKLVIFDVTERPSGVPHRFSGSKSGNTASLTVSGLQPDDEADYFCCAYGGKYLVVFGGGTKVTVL",
    "Numeric result": 33900
  }
]

# next binder below
[ask] # return recorded Trimeric HA Binding RLU for input TCN-546 (5089_L08) (antibody, V domains shown) VH: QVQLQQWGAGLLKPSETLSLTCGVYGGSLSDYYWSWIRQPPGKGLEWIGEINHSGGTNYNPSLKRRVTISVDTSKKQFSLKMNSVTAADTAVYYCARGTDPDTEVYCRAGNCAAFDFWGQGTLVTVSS VL: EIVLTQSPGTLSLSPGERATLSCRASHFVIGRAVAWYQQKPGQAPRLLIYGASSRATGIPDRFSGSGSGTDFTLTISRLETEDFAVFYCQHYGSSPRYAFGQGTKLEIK
[reply] 40900
